Target: Alpha-1D adrenergic receptor (Rattus norvegicus) (UniProt P23944)
Sequence (whole entry): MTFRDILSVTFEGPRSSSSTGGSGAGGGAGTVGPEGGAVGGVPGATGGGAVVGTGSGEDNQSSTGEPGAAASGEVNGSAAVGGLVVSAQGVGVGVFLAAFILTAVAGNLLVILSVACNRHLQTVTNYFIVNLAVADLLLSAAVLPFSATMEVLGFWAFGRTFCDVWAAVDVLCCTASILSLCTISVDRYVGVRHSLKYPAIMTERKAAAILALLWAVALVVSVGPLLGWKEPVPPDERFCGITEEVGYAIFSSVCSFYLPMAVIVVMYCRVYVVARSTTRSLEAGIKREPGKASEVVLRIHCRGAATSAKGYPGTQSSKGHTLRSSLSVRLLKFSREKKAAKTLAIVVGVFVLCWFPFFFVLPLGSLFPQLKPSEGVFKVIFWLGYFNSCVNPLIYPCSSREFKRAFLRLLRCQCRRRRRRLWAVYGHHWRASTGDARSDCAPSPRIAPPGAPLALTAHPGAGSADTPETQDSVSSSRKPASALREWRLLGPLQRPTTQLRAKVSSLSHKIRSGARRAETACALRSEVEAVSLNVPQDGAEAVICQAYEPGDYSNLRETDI
Assay: Antagonist activity at adrenergic alpha 1D receptor in rat thoracic aorta
Format: functional, tissue-based
quantityKind: pKb

                            smilesstructure  obsvalue
0  COc1ccc(Cl)cc1N1CCN(CCn2c(C)nc3c(sc4ccccc43)c2=O)CC1      7.57
1  COc1ccccc1N1CCN(CCn2c(C)nc3c(sc4ccccc43)c2=O)CC1      8.98
2  COc1ccccc1N1CCN(CCn2c(C)nc3c4ccccc4nc-3c2O)CC1      9.24
3  COc1ccccc1N1CCN(CCn2c(=O)[nH]c3c(sc4ccccc43)c2=O)CC1      8.89
4  COc1ccccc1N1CCN(CCn2c(=O)[nH]c3c([nH]c4ccccc43)c2=O)CC1      8.71
5  COc1ccc(Cl)cc1N1CCN(CCn2c(C)nc3c([nH]c4ccccc43)c2=O)CC1      8.39

----------
Listing of recorded Ki by entry.
Protein target, amino acids: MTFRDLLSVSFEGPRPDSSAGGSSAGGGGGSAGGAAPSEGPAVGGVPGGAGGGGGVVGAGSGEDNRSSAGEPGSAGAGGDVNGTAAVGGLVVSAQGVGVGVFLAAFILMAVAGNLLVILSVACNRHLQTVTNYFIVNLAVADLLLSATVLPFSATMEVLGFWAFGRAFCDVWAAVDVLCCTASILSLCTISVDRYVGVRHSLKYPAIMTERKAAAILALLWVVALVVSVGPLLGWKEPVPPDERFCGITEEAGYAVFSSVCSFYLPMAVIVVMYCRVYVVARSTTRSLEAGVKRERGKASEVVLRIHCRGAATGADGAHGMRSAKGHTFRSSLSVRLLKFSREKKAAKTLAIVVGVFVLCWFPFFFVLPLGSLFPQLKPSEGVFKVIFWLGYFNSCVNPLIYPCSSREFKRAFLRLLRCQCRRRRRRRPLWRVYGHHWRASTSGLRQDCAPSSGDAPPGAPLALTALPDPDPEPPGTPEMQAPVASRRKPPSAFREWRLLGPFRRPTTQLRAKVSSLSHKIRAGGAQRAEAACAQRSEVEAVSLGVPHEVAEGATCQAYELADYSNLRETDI
quantityKind: Ki (nM)

                            smilesstructure  obsvalue
0  COc1ccc(Cl)cc1N1CCN(CCn2c(C)nc3c([nH]c4ccccc43)c2=O)CC1     0.166
1  COc1ccc(Cl)cc1N1CCN(CCn2c(C)nc3c(sc4ccccc43)c2=O)CC1     0.832
2  COc1ccccc1N1CCN(CCn2c(C)nc3c(sc4ccccc43)c2=O)CC1     0.398
3  Cn1c(=O)n(CCN2CCN(c3ccc(Cl)c(Cl)c3)CC2)c(=O)c2c1c1ccccc1n2C       437

meta.source: ChEMBL document CHEMBL1146173
